Provide the recorded Average Diameter of the Colony for the entries that follow.
System: Valsa mali
Experiment: Ex vivo mycelial growth, growth rate method
Format: cell-based
Conditions: 1 mg/mL
Give bare numbers, in cm.

Field: example entries. Status: answers known.
[[record]]
compound = "CCOC(=O)/C=C/c1ccc(OC)c(OC)c1"
propertyname = "Average Diameter of the Colony"
number = 0.00

[[record]]
compound = "CCOC(=O)/C=C/c1ccc(OC)c(F)c1"
propertyname = "Average Diameter of the Colony"
number = 0.85

[[record]]
compound = "CCOC(=O)/C=C/c1ccc2c(c1)OCO2"
propertyname = "Average Diameter of the Colony"
number = 0.00


Pending compound:
Lab note: compound COC(=O)C=Cc1ccc(OC)c(OC)c1 [Control Compound A, methyl 3,4-dimethoxy cinnamate, reference compound] tested on Valsa mali; recorded Average Diameter of the Colony was 0.00
